- Procedure Summary: Biodistribution in AR42J tumor-bearing mice
- Conditions: female, CD-1 nude (athymic nude), mouse, stomach, iv, 5 MBq per mouse, total radioactivity, Biodistribution, i.v. ~5 MBq (~1 nmol), 30 min p.i., mean ± SD, n=3
Measured Parameter: tissue uptake at 0.5 h (%ID/g)
A number alone suffices; assume %ID/g.

Inquiry: Need tissue uptake at 0.5 h, item C[C@@H](O)[C@@H]1NC(=O)[C@H](CCCCN)NC(=O)[C@@H](Cc2c[nH]c3ccccc23)NC(=O)[C@H](Cc2cccc3ccccc23)NC(=O)[C@@H](NC(=O)[C@@H](Cc2ccccc2)NC(=O)CCC(C(=O)O)N2CCN(CC(=O)O)CCN(CC(=O)O)CC2)CSSC[C@@H](C(=O)N[C@H](CO)[C@@H](C)O)NC1=O (stereo partly shown) [^44Sc-NODAGA-NOC, metal not drawn]
Reply text: 1.45

====

Please go through the items and note down their tissue uptake at 5 h.
- Procedure Summary: Biodistribution in U87MG tumor-bearing mice
- Type: in vivo
- Conditions: female, CD-1 nude (athymic nude), mouse, kidneys, iv, total radioactivity, i.v. ~5 MBq (~1 nmol), 5 h p.i., mean ± SD, n=3, read-out: Biodistribution, Kidneys

Inquiry: Need tissue uptake at 5 h, item N=C(N)NCCC[C@@H]1NC(=O)[C@H](CCCCNC(=O)CN2CCN(CC(=O)O)CCN(CC(=O)O)CCN(CC(=O)O)CC2)NC(=O)[C@@H](Cc2ccccc2)NC(=O)[C@H](CC(=O)O)NC(=O)CNC1=O [^44Sc-DOTA-RGD, metal not drawn]
Reply text: < 2 %ID/g

Inquiry: Need tissue uptake at 5 h, item N=C(N)NCCC[C@@H]1NC(=O)[C@H](CCCCNC(=O)CCC(C(=O)O)N2CCN(CC(=O)O)CCN(CC(=O)O)CC2)NC(=O)[C@@H](Cc2ccc(O)cc2)NC(=O)[C@H](CC(=O)O)NC(=O)CNC1=O (some centres unmarked) [^44Sc-NODAGA-RGD, metal not drawn]
Reply text: < 2 %ID/g

====

- Procedure Summary: Biodistribution in U87MG tumor-bearing mice
- Format: in vivo
- Conditions: female, CD-1 nude (athymic nude), mouse, brain, iv, 5 MBq per mouse, total radioactivity, i.v. ~5 MBq (~1 nmol), 2 h p.i., mean ± SD, n=3, read-out: Biodistribution, Brain
Measured Parameter: tissue uptake at 2 h (%ID/g)
A number alone suffices; assume %ID/g.

Inquiry: Need tissue uptake at 2 h, item N=C(N)NCCC[C@@H]1NC(=O)[C@H](CCCCNC(=O)CN2CCN(CC(=O)O)CCN(CC(=O)O)CCN(CC(=O)O)CC2)NC(=O)[C@@H](Cc2ccccc2)NC(=O)[C@H](CC(=O)O)NC(=O)CNC1=O [^44Sc-DOTA-RGD, metal not drawn]
Reply text: 0.06

====

- Procedure Summary: Biodistribution in AR42J tumor-bearing mice
- Conditions: female, CD-1 nude (athymic nude), mouse, pancreas, iv, 5 MBq per mouse, total radioactivity, Biodistribution, i.v. ~5 MBq (~1 nmol), 30 min p.i., mean ± SD, n=3
Measured Parameter: tissue uptake at 0.5 h (%ID/g)
A number alone suffices; assume %ID/g.

Inquiry: Need tissue uptake at 0.5 h, item C[C@@H](O)[C@@H]1NC(=O)[C@H](CCCCN)NC(=O)[C@@H](Cc2c[nH]c3ccccc23)NC(=O)[C@H](Cc2cccc3ccccc23)NC(=O)[C@@H](NC(=O)[C@@H](Cc2ccccc2)NC(=O)CCC(C(=O)O)N2CCN(CC(=O)O)CCN(CC(=O)O)CC2)CSSC[C@@H](C(=O)N[C@H](CO)[C@@H](C)O)NC1=O (stereo partly shown) [^44Sc-NODAGA-NOC, metal not drawn]
Reply text: 1.6

====

- Procedure Summary: Biodistribution in AR42J tumor-bearing mice
- Conditions: female, CD-1 nude (athymic nude), mouse, bone, iv, total radioactivity, Biodistribution, i.v. ~5 MBq (~1 nmol), 5 h p.i., mean ± SD, n=3
Measured Parameter: tissue uptake at 5 h (%ID/g)
A number alone suffices; assume %ID/g.

Inquiry: Need tissue uptake at 5 h, item C[C@@H](O)[C@@H]1NC(=O)[C@H](CCCCN)NC(=O)[C@@H](Cc2c[nH]c3ccccc23)NC(=O)[C@H](Cc2cccc3ccccc23)NC(=O)[C@@H](NC(=O)[C@@H](Cc2ccccc2)NC(=O)CCC(C(=O)O)N2CCN(CC(=O)O)CCN(CC(=O)O)CC2)CSSC[C@@H](C(=O)N[C@H](CO)[C@@H](C)O)NC1=O (stereo partly shown) [^44Sc-NODAGA-NOC, metal not drawn]
Reply text: 0.46

====

- Procedure Summary: Biodistribution in AR42J tumor-bearing mice
- Conditions: female, CD-1 nude (athymic nude), mouse, bone, iv, total radioactivity, Biodistribution, i.v. ~5 MBq (~1 nmol), 30 min p.i., mean ± SD, n=3
Measured Parameter: tissue uptake at 0.5 h (%ID/g)
A number alone suffices; assume %ID/g.

Inquiry: Need tissue uptake at 0.5 h, item C[C@@H](O)[C@@H]1NC(=O)[C@H](CCCCN)NC(=O)[C@@H](Cc2c[nH]c3ccccc23)NC(=O)[C@H](Cc2cccc3ccccc23)NC(=O)[C@@H](NC(=O)[C@@H](Cc2ccccc2)NC(=O)CCC(C(=O)O)N2CCN(CC(=O)O)CCN(CC(=O)O)CC2)CSSC[C@@H](C(=O)N[C@H](CO)[C@@H](C)O)NC1=O (stereo partly shown) [^44Sc-NODAGA-NOC, metal not drawn]
Reply text: 1.38

====

- Procedure Summary: Biodistribution in AR42J tumor-bearing mice
- Conditions: female, CD-1 nude (athymic nude), mouse, AR42J tumor / liver, iv, total radioactivity, Tumor-to-liver ratio, i.v. ~5 MBq (~1 nmol), 30 min p.i., mean ± SD, n=3
Measured Parameter: tissue to tissue ratio at 0.5 h
Give the figure only, with no unit attached.

Inquiry: Need tissue to tissue ratio at 0.5 h, item C[C@@H](O)[C@@H]1NC(=O)[C@H](CCCCN)NC(=O)[C@@H](Cc2c[nH]c3ccccc23)NC(=O)[C@H](Cc2cccc3ccccc23)NC(=O)[C@@H](NC(=O)[C@@H](Cc2ccccc2)NC(=O)CCC(C(=O)O)N2CCN(CC(=O)O)CCN(CC(=O)O)CC2)CSSC[C@@H](C(=O)N[C@H](CO)[C@@H](C)O)NC1=O (stereo partly shown) [^44Sc-NODAGA-NOC, metal not drawn]
Reply text: 8.13

====

- Procedure Summary: Biodistribution in AR42J tumor-bearing mice
- Conditions: female, CD-1 nude (athymic nude), mouse, spleen, iv, total radioactivity, Biodistribution, i.v. ~5 MBq (~1 nmol), 30 min p.i., mean ± SD, n=3
Measured Parameter: tissue uptake at 0.5 h (%ID/g)
A number alone suffices; assume %ID/g.

Inquiry: Need tissue uptake at 0.5 h, item C[C@@H](O)[C@@H]1NC(=O)[C@H](CCCCN)NC(=O)[C@@H](Cc2c[nH]c3ccccc23)NC(=O)[C@H](Cc2cccc3ccccc23)NC(=O)[C@@H](NC(=O)[C@@H](Cc2ccccc2)NC(=O)CCC(C(=O)O)N2CCN(CC(=O)O)CCN(CC(=O)O)CC2)CSSC[C@@H](C(=O)N[C@H](CO)[C@@H](C)O)NC1=O (stereo partly shown) [^44Sc-NODAGA-NOC, metal not drawn]
Reply text: 0.91

====

- Procedure Summary: Biodistribution in U87MG tumor-bearing mice
- Format: in vivo
- Conditions: female, CD-1 nude (athymic nude), mouse, stomach, iv, 5 MBq per mouse, total radioactivity, i.v. ~5 MBq (~1 nmol), 5 h p.i., mean ± SD, n=3, read-out: Biodistribution, Stomach
Measured Parameter: tissue uptake at 5 h (%ID/g)
A number alone suffices; assume %ID/g.

Inquiry: Need tissue uptake at 5 h, item N=C(N)NCCC[C@@H]1NC(=O)[C@H](CCCCNC(=O)CN2CCN(CC(=O)O)CCN(CC(=O)O)CCN(CC(=O)O)CC2)NC(=O)[C@@H](Cc2ccccc2)NC(=O)[C@H](CC(=O)O)NC(=O)CNC1=O [^44Sc-DOTA-RGD, metal not drawn]
Reply text: 0.72

Inquiry: Need tissue uptake at 5 h, item N=C(N)NCCC[C@@H]1NC(=O)[C@H](CCCCNC(=O)CCC(C(=O)O)N2CCN(CC(=O)O)CCN(CC(=O)O)CC2)NC(=O)[C@@H](Cc2ccc(O)cc2)NC(=O)[C@H](CC(=O)O)NC(=O)CNC1=O (some centres unmarked) [^44Sc-NODAGA-RGD, metal not drawn]
Reply text: 0.8

====

- Procedure Summary: Biodistribution in U87MG tumor-bearing mice
- Type: in vivo
- Conditions: female, CD-1 nude (athymic nude), mouse, U87MG tumor / blood, iv, total radioactivity, i.v. ~5 MBq (~1 nmol), 5 h p.i., mean ± SD, n=3, read-out: Tumor-to-blood ratio
Measured Parameter: tissue to tissue ratio at 5 h
Give the figure only, with no unit attached.

Inquiry: Need tissue to tissue ratio at 5 h, item N=C(N)NCCC[C@@H]1NC(=O)[C@H](CCCCNC(=O)CCC(C(=O)O)N2CCN(CC(=O)O)CCN(CC(=O)O)CC2)NC(=O)[C@@H](Cc2ccc(O)cc2)NC(=O)[C@H](CC(=O)O)NC(=O)CNC1=O (some centres unmarked) [^44Sc-NODAGA-RGD, metal not drawn]
Reply text: 30.5

Inquiry: Need tissue to tissue ratio at 5 h, item N=C(N)NCCC[C@@H]1NC(=O)[C@H](CCCCNC(=O)CN2CCN(CC(=O)O)CCN(CC(=O)O)CCN(CC(=O)O)CC2)NC(=O)[C@@H](Cc2ccccc2)NC(=O)[C@H](CC(=O)O)NC(=O)CNC1=O [^44Sc-DOTA-RGD, metal not drawn]
Reply text: 47.2
